Hey, just so you know, these numbers are from patent US10954232B2.

- target system: ALK5 kinase (Homo sapiens, UniProt P36897)
- Construct: GST; purchased Thermo Fisher Scientific Solutions
- Sequence (P36897 34-503): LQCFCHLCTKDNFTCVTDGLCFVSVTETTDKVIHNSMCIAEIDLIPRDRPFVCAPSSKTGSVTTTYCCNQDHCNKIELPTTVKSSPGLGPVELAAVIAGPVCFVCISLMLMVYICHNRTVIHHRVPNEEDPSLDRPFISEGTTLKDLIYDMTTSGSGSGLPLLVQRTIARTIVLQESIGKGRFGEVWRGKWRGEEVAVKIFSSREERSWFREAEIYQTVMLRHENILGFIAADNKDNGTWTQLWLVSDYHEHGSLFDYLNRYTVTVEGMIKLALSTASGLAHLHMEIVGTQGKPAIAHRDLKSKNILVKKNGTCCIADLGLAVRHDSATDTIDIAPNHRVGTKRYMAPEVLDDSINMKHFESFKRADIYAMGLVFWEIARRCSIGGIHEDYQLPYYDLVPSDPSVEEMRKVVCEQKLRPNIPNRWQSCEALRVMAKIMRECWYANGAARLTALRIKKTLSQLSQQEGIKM
- test description: Activity inhibition test on ALK5 enzyme (LanthaScreen Eu binding kinase assay)
- measurement context: kinase tracer 178, 60 minutes at room temperature
property measured: IC50 (nM)

Examples with answers:
smiles entry: Cc1cccc(-n2nc(C(=O)NC3CC3)cc2-c2ccc(F)c(-c3cnn(CCO)c3)c2)n1
target system: ALK5 kinase (Homo sapiens, UniProt P36897)
unit info: nM
IC50: 4.3
--
smiles entry: COc1ccc(NC(=O)c2cc(-c3ccc4ncsc4c3)n(-c3cccc(C)n3)n2)c(F)c1
target system: ALK5 kinase (Homo sapiens, UniProt P36897)
unit info: nM
IC50: 19
--
smiles entry: Cc1cccc(-n2nc(C(=O)Nc3ccc(S(=O)(=O)O)cc3)cc2-c2ccc3ncsc3c2)n1
target system: ALK5 kinase (Homo sapiens, UniProt P36897)
unit info: nM
IC50: 2.4
--
smiles entry: Cc1cccc(-n2nc(C(=O)Nc3cccc(S(C)(=O)=O)c3)cc2-c2ccc3ncsc3c2)n1
target system: ALK5 kinase (Homo sapiens, UniProt P36897)
unit info: nM
IC50: 3.3

[A] Cc1cccc(-n2nc(C(=O)NCc3cccc(F)c3)cc2-c2ccc3ncsc3c2)n1
[B] Cc1cccc(-n2nc(C(=O)Nc3ccc([N+](=O)[O-])cc3)cc2-c2ccc3ncsc3c2)n1
[C] COc1ccc(NC(=O)c2cc(-c3ccc4ncnn4c3)n(-c3cccc(C)n3)n2)cc1F
[D] Cc1cccc(-n2nc(C(=O)Nc3ccnc(F)c3)cc2-c2ccc3ncsc3c2)n1
[E] Cc1cccc(-n2nc(C(=O)Nc3cnn(S(C)(=O)=O)c3)cc2-c2ccc3ncnn3c2)n1
-- ask Kindly order the items shown according to IC50, from the highest value down. Put the labels in the requested order and list them out.
-- reply B, D, C, A, E

---

- target system: ALK5 kinase (Homo sapiens)
- Construct: GST; purchased Thermo Fisher Scientific Solutions
- test description: Activity inhibition test on ALK5 enzyme (LanthaScreen Eu binding kinase assay)
- measurement context: kinase tracer 178, 60 minutes at room temperature
Known IC50 of a selection of compounds

Here's what some known entries look like.
smiles entry: COCCOc1ccc(NC(=O)c2cc(-c3ccc4ncsc4c3)n(-c3cccc(C)n3)n2)cc1
recorded measurement: 4.4 nM

smiles entry: Cc1cccc(-n2nc(C(=O)NCc3ccccc3Cl)cc2-c2ccc3nccnc3c2)n1
recorded measurement: 10 to 100 nM

smiles entry: Cc1cccc(-n2nc(C(=O)Nc3cccc(S(N)(=O)=O)c3)cc2-c2ccc3ncsc3c2)n1
recorded measurement: 2.4 nM

smiles entry: Cc1cccc(-n2nc(C(=O)Nc3ccc(F)cc3)cc2-c2ccc3nccnc3c2)n1
recorded measurement: 10 to 100 nM

smiles entry: Cc1cccc(-n2nc(C(=O)Nc3ccc(Cl)c(Cl)c3)cc2-c2ccc3ncnn3c2)n1
recorded measurement: 10 to 100 nM

-- ask Sample CC(=O)c1cccc(CNC(=O)c2cc(-c3ccc4nccnc4c3)n(-c3cccc(C)n3)n2)c1 — what was its IC50?
-- reply 10 to 100 nM

-- ask Endpoint output: IC50 of Cc1cccc(-n2nc(C(=O)Nc3cccc(C#N)c3)cc2-c2ccc3nccnc3c2)n1 . Value?
-- reply < 100 nM

-- ask So what does the record say about IC50 for Cc1cccc(-n2nc(C(=O)Nc3ccc(C#N)cc3)cc2-c2ccc3ncnn3c2)n1 ?
-- reply 10 to 100 nM

---

- target system: ALK5 kinase (Homo sapiens, UniProt P36897)
- Construct: GST; purchased Thermo Fisher Scientific Solutions
- test description: Activity inhibition test on ALK5 enzyme (LanthaScreen Eu binding kinase assay)
- measurement context: kinase tracer 178, 60 minutes at room temperature
property measured: IC50 (nM)

Solved entries:
smiles entry: Cc1cccc(-n2nc(C(=O)Nc3ccc(S(=O)(=O)N(C)C)cc3)cc2-c2ccc3ncsc3c2)n1
IC50, nM: 2.5
//
smiles entry: Cc1cccc(-n2nc(C(=O)Nc3cccc(N)c3)cc2-c2ccc3ncsc3c2)n1
IC50, nM: 2.2
//
smiles entry: Cc1cccc(-n2nc(C(=O)Nc3cccc(CO)c3)cc2-c2ccc3ncsc3c2)n1
IC50, nM: 3.9
//
smiles entry: Cc1cccc(-n2nc(C(=O)Nc3ccc(S(N)(=O)=O)cc3)cc2-c2ccc3ncnn3c2)n1
IC50, nM: 8.3

[A] Cc1cccc(-n2nc(C(=O)Nc3ccccc3F)cc2-c2ccc3ncsc3c2)n1
[B] COCCOc1ccc(NC(=O)c2cc(-c3ccc4ncnn4c3)n(-c3cccc(C)n3)n2)cc1
-- ask From the recorded data, which exceeds the other in IC50: A or B ? The response must carry the label of the picked entry.
-- reply B
(B: 25 nM, A: 6.2 nM)

---

- target system: ALK5 kinase (Homo sapiens, UniProt P36897)
- Construct: GST; purchased Thermo Fisher Scientific Solutions
- test description: Activity inhibition test on ALK5 enzyme (LanthaScreen Eu binding kinase assay)
- measurement context: kinase tracer 178, 60 minutes at room temperature
property measured: IC50 (nM)

// solved cases for IC50 follow
compound: Cc1cccc(-n2nc(C(=O)Nc3ccc(O)cc3)cc2-c2ccc3ncsc3c2)n1 [Example 83]
target system: ALK5 kinase (Homo sapiens, UniProt P36897)
property measured: IC50
recorded measurement: 0.7
--
compound: Cc1cccc(-n2nc(C(=O)NCc3ccc(F)cc3)cc2-c2ccc3ncsc3c2)n1 [Example 79]
target system: ALK5 kinase (Homo sapiens, UniProt P36897)
property measured: IC50
recorded measurement: 5.6
--
compound: Cc1cccc(-n2nc(C(=O)Nc3cn[nH]c3)cc2-c2ccc(F)c(-c3cnn(CCO)c3)c2)n1 [Example 222]
target system: ALK5 kinase (Homo sapiens, UniProt P36897)
property measured: IC50
recorded measurement: 1
--
compound: Cc1cccc(-n2nc(C(=O)Nc3ccc(N4CC[C@H](N(C)C)C4)cc3)cc2-c2ccc3ncsc3c2)n1 [Example 16]
target system: ALK5 kinase (Homo sapiens, UniProt P36897)
property measured: IC50
recorded measurement: 2.3
--
compound: Cc1cccc(-n2nc(C(=O)Nc3cnn(S(=O)(=O)C4CC4)c3)cc2-c2ccc3ncsc3c2)n1 [Example 81]
target system: ALK5 kinase (Homo sapiens, UniProt P36897)
property measured: IC50
recorded measurement: 1.5

[1] COc1ccc(NC(=O)c2cc(-c3ccc4ncsc4c3)n(-c3cccc(C)n3)n2)cc1F [Example 10]
[2] Cc1cccc(-n2nc(C(=O)Nc3cccc(O)c3)cc2-c2ccc3ncsc3c2)n1 [Example 82]
-- ask Decide: 1 or 2 , by lowest recorded IC50. Identify your selection by its label.
-- reply 2

[I] Cc1cccc(-n2nc(C(=O)Nc3ccc(N4CC5CCCNC5C4)c(Cl)c3)cc2-c2ccc3ncsc3c2)n1 (centres unmarked) [Example 17]
[II] Cc1cccc(-n2nc(C(=O)Nc3ccc(S(=O)(=O)C(F)(F)F)cc3)cc2-c2ccc3ncsc3c2)n1 [Example 57]
[III] Cc1cccc(-n2nc(C(=O)Nc3ccc(S(C)(=N)=O)cc3)cc2-c2ccc3ncsc3c2)n1 (centres unmarked) [Example 89]
[IV] Cc1cccc(-n2nc(C(=O)Nc3ccc(F)c(F)c3)cc2-c2ccc3ncsc3c2)n1 [Example 30]
-- ask # desc sort on IC50 across 4 compounds Response field: labels, in requested order.
-- reply II, I, IV, III

---

- target system: ALK5 kinase (Homo sapiens)
- Construct: GST; purchased Thermo Fisher Scientific Solutions
- Sequence (P36897 34-503): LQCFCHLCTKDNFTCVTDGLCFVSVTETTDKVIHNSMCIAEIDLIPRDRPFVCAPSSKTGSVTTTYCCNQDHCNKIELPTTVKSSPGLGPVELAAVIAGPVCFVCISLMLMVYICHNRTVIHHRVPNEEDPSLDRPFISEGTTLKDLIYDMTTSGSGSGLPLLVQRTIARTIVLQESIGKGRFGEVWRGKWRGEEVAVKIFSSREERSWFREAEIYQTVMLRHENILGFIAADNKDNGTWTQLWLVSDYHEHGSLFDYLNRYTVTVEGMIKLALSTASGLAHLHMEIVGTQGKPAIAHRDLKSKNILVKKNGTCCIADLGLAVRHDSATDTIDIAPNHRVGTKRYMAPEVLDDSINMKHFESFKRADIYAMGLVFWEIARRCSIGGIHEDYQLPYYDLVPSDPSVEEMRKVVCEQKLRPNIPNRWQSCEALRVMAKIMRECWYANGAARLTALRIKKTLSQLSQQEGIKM
- test description: Activity inhibition test on ALK5 enzyme (LanthaScreen Eu binding kinase assay)
- measurement context: kinase tracer 178, 60 minutes at room temperature
property measured: IC50 (nM)

Recorded results for 6 molecules are shown here.
molecule: Cc1cccc(-n2nc(C(=O)Nc3ccc(Cl)nc3)cc2-c2ccnc3ccccc23)n1
target system: ALK5 kinase (Homo sapiens)
recorded measurement: 23

molecule: Cc1cccc(-n2nc(C(=O)Nc3ccc(CS(C)(=O)=O)cc3)cc2-c2ccc3ncsc3c2)n1
target system: ALK5 kinase (Homo sapiens)
recorded measurement: 20

molecule: Cc1cccc(-n2nc(C(=O)NCc3cccc(F)c3)cc2-c2ccc3ncnn3c2)n1
target system: ALK5 kinase (Homo sapiens)
recorded measurement: 22

molecule: Cc1cccc(-n2nc(C(=O)Nc3ccc(S(C)(=O)=O)cc3)cc2-c2ccc3ncnn3c2)n1
target system: ALK5 kinase (Homo sapiens)
recorded measurement: 3.7

molecule: Cc1cccc(-n2nc(C(=O)Nc3ccccc3F)cc2-c2ccc3ncnn3c2)n1
target system: ALK5 kinase (Homo sapiens)
recorded measurement: 31

molecule: Cc1cccc(-n2nc(C(=O)Nc3cccc([S+](C)[O-])c3)cc2-c2ccc3ncsc3c2)n1 (stereo not shown)
target system: ALK5 kinase (Homo sapiens)
recorded measurement: 1.8

[A] Cc1cccc(-n2nc(C(=O)Nc3ccc(F)c(CS(N)(=O)=O)c3)cc2-c2ccc3ncsc3c2)n1
[B] Cc1cccc(-n2nc(C(=O)Nc3cccc(S(C)(=O)=O)n3)cc2-c2ccc3ncsc3c2)n1
[C] Cc1cccc(-n2nc(C(=O)Nc3ccc(F)nc3)cc2-c2ccc3ncsc3c2)n1
[D] Cc1cccc(-n2nc(C(=O)Nc3cccc(NS(=O)(=O)C4CC4)c3)cc2-c2ccc3ncsc3c2)n1
-- ask Endpoint returns the given molecules ordered by ascending IC50. Reply: labels, ordered per the request.
-- reply D, C, A, B

[P] CCCS(=O)(=O)c1ccc(NC(=O)c2cc(-c3ccc4ncnn4c3)n(-c3cccc(C)n3)n2)cc1 [Example 150]
[Q] Cc1cccc(-n2nc(C(=O)Nc3ccc([S+](C)[O-])cc3)cc2-c2ccc3ncsc3c2)n1 (stereo not shown)
[R] Cc1cccc(-n2nc(C(=O)Nc3ccc(S(C)(=O)=O)cc3F)cc2-c2ccc3ncsc3c2)n1
[S] Cc1cccc(-n2nc(C(=O)NCc3ccccc3F)cc2-c2ccc3ncsc3c2)n1
-- ask Rank items: key IC50, increasing. To answer, write out the labels according to the requested order.
-- reply Q, P, S, R

[I] Cc1cccc(-n2nc(C(=O)Nc3ccc(Cl)nc3)cc2-c2ccc3ncnn3c2)n1
[II] CCCS(=O)(=O)c1ccc(NC(=O)c2cc(-c3ccc4ncsc4c3)n(-c3cccc(C)n3)n2)cc1
-- ask In terms of reported IC50, does I or II have the smaller number? Response format: the label of the selected entry.
-- reply II
(II: 2.2 nM, I: 25 nM)
